Where do these numbers come from? They come from paper PMC6600263.

The compounds listed here are annotated with their MRT.
assay: pharmacokinetics of 16 ginsenosides in rat plasma after oral administration of RGS; assay type: in vivo; conditions: SD, rat, plasma, po, 100 mg/kg, model (scopolamine 1 mg/kg i.p.-treated) rats, oral RGS single dose 100 mg/kg, plasma, mean ± S.D., n = 5; read-out: MRT
Only the number, expressed in h, is required.

Past entries and their recorded results:
(Q) Using the record for CC(C)=CCC=C(C)C1CCC2(C)C1C(O)CC1C3(C)CCC(OC4OC(CO)C(O)C(O)C4OC4OC(CO)C(O)C(O)C4O)C(C)(C)C3CCC12C (stereo not drawn) [Rg5] , state its measured MRT.
(A) 25.6

(Q) Using the record for C=C(CCC=C(C)C)C1CCC2(C)C1C(O)CC1C3(C)CCC(OC4OC(CO)C(O)C(O)C4OC4OC(CO)C(O)C(O)C4O)C(C)(C)C3CCC12C (stereo not drawn) [Rk1] , state its measured MRT.
(A) 26.8

---
(Q) Using the record for CC(C)=CCCC(C)(OC1OC(COC2OC(CO)C(O)C2O)C(O)C(O)C1O)C1CCC2(C)C1C(O)CC1C3(C)CCC(OC4OC(CO)C(O)C(O)C4OC4OC(CO)C(O)C(O)C4O)C(C)(C)C3CCC12C (stereo not drawn) [Rc] , state its measured MRT.
(A) 8.9
